All values here come from patent EP1685248B1.

test system: Oxidoreduktase aus Metschnikowia zobellii; experiment: Substrate spectrum (relative enzyme activity, standard assay of Example 5.1); format: biochemical; conditions: activity with 2-Oxo-4-phenyl-buttersäureethylester set to 100%; NADPH; 25 °C
Relative Aktivität % below 50% gives 0; Relative Aktivität % at or above it gives 1.

Examples with answers:
compound: CCCC(=O)C(=O)OCC [Ethyl-2-oxovaleriansäure]
answer label: 1
//
compound: CCOC(=O)C1CCCCC1=O (stereo not drawn) [2-Oxo-cyclohexan-carbonsäure-ethylester]
answer label: 0
//
compound: COC(=O)CCCCC(=O)CC(=O)OC [3-Oxo-1,8-octandisäure-dimethylester]
answer label: 0
//
compound: CCOC(=O)C1CCCC1=O (stereo not drawn) [2-Oxo-cyclopentan carbonsäure-ethylester]
answer label: 0
//
compound: CC1CCCC(=O)C1 (stereo not drawn) [3-Methylcyclohexanon]
answer label: 0
//
compound: CCCCCCCC(=O)c1ccccc1 [Caprylophenon]
answer label: 0

**Q:** Entry CCOC(=O)C(=O)CCc1ccccc1 [Ethyl-2-oxo-4-phenyl-buttersäure] : is its Relative Aktivität % no less than 50%?
**A:** 1

**Q:** Entry CC1CCCCC1=O (stereo not drawn) [2-Methylcyclohexanon] : is its Relative Aktivität % no less than 50%?
**A:** 0

**Q:** Entry CC(=O)c1ccccc1 [Acetophenon] : is its Relative Aktivität % no less than 50%?
**A:** 0
